target: HLA-A*02:01; assay: IEDB peptide-MHC binding, purified MHC/competitive/radioactivity; bounds were set here for any values at or beyond the usual limits of such assays; settings: source organism: Vaccinia virus WR
TEST_READOUT: IC50 (nM)
Answers are plain numbers, in nM.

Example results:
NLVKWPLLNI | 146
MVNTVLITV | 121
LLTACTIFYI | 5.7
PLLFILFYFA | 42
NITRLEVIGL | 424
FLKYSRSKPA | 3540
MLKLFTHDIM | 1380
FMASPENVIL | 1070

Give one value of IC50 per listed sequence.
1. NVISKIYTLI
2. GMMQNDYGGM
3. NLLEQLIENI
4. TTLLNETAKV
5. AAVIIMAINV
6. LLSYYVVYV
7. SALMTLDDL

1. 329
2. 705
3. 326
4. 2880
5. 1450
6. 0.46
7. 1100

Give one value of IC50 per listed sequence.
1. LVKDESIQL
2. FVCISYYFT
3. SIVCIVAAV
4. SIINRDIIV
5. KMAGGIGLSI

[3150, 994, 5.3, 699, 9.7]
